# System: HEK293 cells
# Type: cell-based, human
# Condition Summary: circular RNA encoding Gluc with the listed IRES (UTR truncated to 675 nt) transfected into HEK293 cells; supernatant after 24 hours
Experimental Endpoint: Expression (luminescence from secreted Gluc protein)

# Molecule, Result
data = [
    ("Parechovirus D (nucleic acid, lipid formulation; Parechovirus D) DNA: ACATGGGGCAGGTGTGCTGTGCCAAGAGCAACACTACGGTGGCCGAGCCGATGGTTCGTCACCACGTAGTAGGACTCCGTAGTGCTTGGTTACGGCGGACGTAAGTCAGTTGAGTGATGTCTAAGTGGCAAACCATGAGTACATGGTAACCTTGTGTGGACTCGCGGGACGGAATTTCCTATCCCATTGACTCCTTGTAGCAAGGTGGGTATACCCAACCACAATGGCAGCACCCTGGGTGGGAACCCAGGGGCCTGGATTAGTATCCAGTCACACAGCCTGATAGGGTGGCGGCTCAGCCACTGACCAGCGTCTCTAAATAATTGTGAGCTGTTCATGCACC", "3.10E+05"),
    ("Yokose virus (nucleic acid, listed as Yokose virus, lipid formulation) DNA: AGTAAATTTTGCGTGCTAGTCGCTGAGCGTCAGACCGCAAAGTGAGTTTTTAGTGATCTAAAGTGAGGAGTTATTCTTACTGTCATCAAACACTACAAATAAACACGTTGAAATTATTTCCGGAAGAACAACTGTCCGGAATCAAAGACG", "8.55E+04"),
    ("Wobbly possum disease virus (nucleic acid, source: /note=\"Description of Unknown: Wobbly possum disease virus sequence\") DNA: CGGCTGTGAGTGCTTAGCATATGCTAGAGTACTACAGCCGGGTGTTGGAGTCATATGCACTGGTTGCCTGTATAATAGTCGGGATCTGTCTGACCTACATTATCTTTGGGAGTTGCTTATCACGACAATTCTCGAAGTGTCTGTCGACAGCTTACCCCCGATTCGACAAGGCCCCTTGTCCACCGCAGACCTATCGATTTTCAACGAGAACACTATCAGAGGTTTAAATTTAAAACTCACCAACA", "2.60E+05"),
    ("Human pegivirus 2: \"an IRES is an IRES sequence of ... Human Pegivirus 2\" (nucleic acid, listed as Pegivirus sp.) DNA: AACTGTTGTTGTAGCAATGCGCATATTGCTACTTCGGTACGCCTAATTGGTAGGCGCCCGGCCGACCGGCCCCGCAAGGGCCTAGTAGGACGTGTGACAATGCCATGAGGGATCATGACACTGGGGTGAGCGGAGGCAGCACCGAAGTCGGGTGAACTCGACTCCCAGTGCGACCACCTGGCTTGGTCGTTCATGGAGGGCATGCCCACGGGAACGCTGATCGTGCAAAGGGATGGGTCCCTGCACTGGTGCCATGCGCGGCACCACTCCGTACAGCCTGATAGGGTGGCGGCGGGCCCCCCCAGTGTGACGTCCGTGGAGCGCAAC", "3.14E+05"),
    ("Hepacivirus P (nucleic acid, listed as Hepacivirus sp.) DNA: ACATGGGGGGGGGCTGACAGTGAGTACACTGTGCCAAGCAGGTGCTACGCTATGCCTAGGTGCTGCTGTAGGCCAAGGACATGTCCCAGTCATCCCAGGTGAGGGGGGGGGTTCCCCTCACCGCTGCCACTGCCTGATAGGGTCCTGCCGGAGGGTCTCGGTGTCCGGCTGTAC", "6.04E+05"),
    ("Hubei zhaovirus-like virus 1 (nucleic acid, source: /note=\"Description of Unknown: Hubei zhaovirus-like virus 1 sequence\") DNA: GTGCAGGATGGCCTTTCCCATCTTAAGTGGTTTGTAGGATTTCGTGGGTCCATACCCCCCGATTTCTTGGTACGTATTCCATGCACGGAGAATACGACCAAAACTCTTATTTCAAAAAATATTATTTTTTACTCTTGTGGGCTGAGTGCGACCCACCAGTTCCAGCTTAGCAACCTGGAAGTTGTTGGAGATTTATGGAACCAAATTACACATGCGTGGAGTGCCGCCACTCCGTATCTGTTCACTCATTACGCGATTAAGTTCTGCGACGAGACGAGCGAA", "1.03E+05"),
]
